This collection of values is drawn from patent US11840686B2.

Could you please report measured % inhibition for the items listed next?
Test system: human PKK mRNA
Protocol details: Antisense inhibition of human PKK mRNA in HepaRG cells, 1,000 nM, MOE/deoxy/cEt oligonucleotides (Example 3)
Assay type: cell-based
Study conditions: HepaRG cells, electroporation with 1,000 nM antisense oligonucleotide, approximately 24 hours, primer probe set RTS3454, relative to untreated control cells; experiment of Table 23
Strand notation (5' to 3'): a small letter for the sugar, then the base; units joined by * are phosphorothioate-linked, units joined directly phosphodiester-linked; [ ] holds rarer units or linkages, { } end groups; capitals alone tell only the bases. e = 2'-O-(2-methoxyethyl) (MOE); k = constrained ethyl (cEt); [5mC] = 5-methylcytosine; d = 2'-deoxy (DNA)
A bare number is not enough; add the unit after it.

Requested field: % inhibition. Item: 547931 (eG*eT*kG*dA*dT*dA*dG*dG*dT*dG*d[5mC]*dA*dG*kA*kT*eG; antisense) [compound 547931]
58%

Another: 547936 (eG*eA*k[5mC]*dT*d[5mC]*dG*dA*dT*dT*dT*dT*d[5mC]*d[5mC]*kA*kT*eA; antisense) [compound 547936]
44%

Another: 547937 (eT*eG*kT*dG*dA*d[5mC]*dT*d[5mC]*dG*dA*dT*dT*dT*kT*k[5mC]*e[5mC]; antisense) [compound 547937]
56%

Same read-out for 547970 (antisense e[5mC]*eT*k[5mC]*d[5mC]*d[5mC]*dG*dG*dG*dT*dA*dA*dA*dT*kT*kT*eT) [compound 547970] ?
42%

Cool, now 547988 (antisense eT*eG*kA*d[5mC]*dA*dG*d[5mC]*dG*dA*dA*dT*d[5mC]*dA*kT*k[5mC]*eT) [compound 547988]
56%

Queued: 547974 (antisense eA*eA*kA*dG*dT*d[5mC]*dA*dA*d[5mC]*dT*d[5mC]*d[5mC]*d[5mC]*kG*kG*eG) [compound 547974]
52%

---

Test system: human PKK mRNA
Protocol details: Antisense inhibition of human PKK mRNA in HepaRG cells, 3,000 nM (Example 1)
Type: cell-based
Study conditions: Table 2; PKK mRNA, HepaRG cells, 3,000 nM, electroporation, ~24 h, relative to untreated control cells
Strand notation (5' to 3'): a small letter for the sugar, then the base; units joined by * are phosphorothioate-linked, units joined directly phosphodiester-linked; [ ] holds rarer units or linkages, { } end groups; capitals alone tell only the bases. e = 2'-O-(2-methoxyethyl) (MOE); [5mC] = 5-methylcytosine; d = 2'-deoxy (DNA)
Would you mind telling me the reported % inhibition of each entry?
// units = %; emit number, no label

Param item = 531076 (eA*e[5mC]*eT*e[5mC]*eT*d[5mC]*d[5mC]*dA*dT*dG*d[5mC]*dT*dT*dT*dG*e[5mC]*eA*eG*eA*eT; antisense) [compound 531076] ; retrieve measured % inhibition.
68

Further, for 531046 (antisense eG*eA*eT*eA*eT*d[5mC]*dT*dT*dT*dT*d[5mC]*dT*dG*dG*d[5mC]*eA*eT*eT*e[5mC]*eT) [compound 531046] ?
54

Please give the result for 531027 (antisense eA*eA*eA*eG*eG*dA*dG*d[5mC]*d[5mC]*dT*dG*dG*dA*dG*dT*eT*eT*eT*eA*eT) [compound 531027] too.
0

Another substance to look at: 531047 (antisense eA*eT*e[5mC]*eT*eT*dG*dA*dT*dA*dT*d[5mC]*dT*dT*dT*dT*e[5mC]*eT*eG*eG*e[5mC]) [compound 531047]
68

// repeat for 531026 (antisense eA*eT*e[5mC]*eA*eT*dG*dA*dT*dT*d[5mC]*d[5mC]*d[5mC]*dT*dT*d[5mC]*eT*eG*eA*eG*eA) [compound 531026] and report
73

What about 531023 (e[5mC]*eT*eT*eT*eT*dG*dT*dA*dA*dT*dG*dT*d[5mC]*dT*dG*eA*e[5mC]*eA*eG*eA; antisense) [compound 531023] ?
71
